system: human miRNA145; assay: miRNA145 inhibition on Human Keratinocyte HaCaT cell line, direct quantification by luminescence; format: cell-based; conditions: HaCaT cells, 0.3 mg/ml, 24 hours, normalized with Snord48; mean of 3 experiments for DD14024, one experiment for the others
The star is where a group is joined. Palmitoyl = CCCCCCCCCCCCCCCC(=O)*; NHHex = CCCCCCN*
Quick list: Relative level of miRNA145 respect to basal control (%) per entry.
Kindly answer with a numeric value in %, unit omitted.

Here are 3 substances together with their reported answers.
substance="Ac-Gln-Glu-Met-Arg-Met-Gln-Val-Tyr-OH (Ac-QEMRMQVY-OH) [DD15049]" measured_value=80.09
substance="Ac-Gln-Glu-Met-Arg-Met-Gln-NHC6H13 (Ac-QEMRMQ-NHHex) [DD15004]" measured_value=89.03
substance="H-Gln-Glu-Met-Arg-Leu-Gln-NH2 (H-QEMRLQ-NH2) [DD15055]" measured_value=67.03

[in] Fill in: Relative level of miRNA145 respect to basal control (%) of Ac-Pro-Val-Gln-Glu-Met-Arg-Met-Gln-OH (Ac-PVQEMRMQ-OH) [DD15048] is ___
[out] 89.54

[in] What does the record list as Relative level of miRNA145 respect to basal control (%) for Ac-Gln-Glu-Met-Arg-Met-Gln-NH2 (Ac-QEMRMQ-NH2) [DD14023] ?
[out] 87.03

[in] Item Palm-Gln-Glu-Leu-Arg-Met-Gln-OH (Palmitoyl-QELRMQ-OH; SMILES CCCCCCCCCCCCCCCC(=O)N[C@@H](CCC(N)=O)C(=O)N[C@@H](CCC(=O)O)C(=O)N[C@@H](CC(C)C)C(=O)N[C@@H](CCCNC(=N)N)C(=O)N[C@@H](CCSC)C(=O)N[C@@H](CCC(N)=O)C(=O)O) [DD15015] has what recorded Relative level of miRNA145 respect to basal control (%)?
[out] 14.07

[in] Endpoint output: Relative level of miRNA145 respect to basal control (%) of H-Gln-Glu-Met-Arg-Met-Gln-OH (H-QEMRMQ-OH) [DD15002] . Value?
[out] 89.75

[in] Param item = Ac-Gln-Glu-Met-Arg-Met-Gln-Tyr-OH (Ac-QEMRMQY-OH) [DD15046] ; retrieve measured Relative level of miRNA145 respect to basal control (%).
[out] 74.02

[in] Which Relative level of miRNA145 respect to basal control (%) is listed for H-Gln-Asp-Met-Arg-Met-Asn-NH2 (H-QDMRMN-NH2) [DD15025] ?
[out] 86.95

[in] Look at this substance and give its reported Relative level of miRNA145 respect to basal control (%). Ac-Glu-Glu-Met-Arg-Met-Gln-OH (Ac-EEMRMQ-OH) [DD15051]
[out] 92.26

[in] Could you tell me which Relative level of miRNA145 respect to basal control (%) is on file for Ac-Asn-Glu-Ile-Arg-Val-Gln-OH (Ac-NEIRVQ-OH) [DD15026] ?
[out] 77.60

[in] Query (substance): Ac-Pro-Gln-Glu-Met-Arg-Met-Gln-OH (Ac-PQEMRMQ-OH) [DD15045] ; field requested: Relative level of miRNA145 respect to basal control (%)
[out] 90.71
